Origin of measurements: patent US20180057604A1

molecular target: T1, human TfR extracellular domain with N-terminal His tag (human, UniProt P02786 89-760); assay: SPR, TfR captured by anti-His, Fab injected;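 also: single cycle kinetics with a Fab dilution series, fitted by a one-to-one Langmuir model or a steady state model, KD taken as koff over kon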
T1 construct: Biotinylated in some assays; also called huTfR; HuTfR
T1 sequence (P02786 89-760 G142S): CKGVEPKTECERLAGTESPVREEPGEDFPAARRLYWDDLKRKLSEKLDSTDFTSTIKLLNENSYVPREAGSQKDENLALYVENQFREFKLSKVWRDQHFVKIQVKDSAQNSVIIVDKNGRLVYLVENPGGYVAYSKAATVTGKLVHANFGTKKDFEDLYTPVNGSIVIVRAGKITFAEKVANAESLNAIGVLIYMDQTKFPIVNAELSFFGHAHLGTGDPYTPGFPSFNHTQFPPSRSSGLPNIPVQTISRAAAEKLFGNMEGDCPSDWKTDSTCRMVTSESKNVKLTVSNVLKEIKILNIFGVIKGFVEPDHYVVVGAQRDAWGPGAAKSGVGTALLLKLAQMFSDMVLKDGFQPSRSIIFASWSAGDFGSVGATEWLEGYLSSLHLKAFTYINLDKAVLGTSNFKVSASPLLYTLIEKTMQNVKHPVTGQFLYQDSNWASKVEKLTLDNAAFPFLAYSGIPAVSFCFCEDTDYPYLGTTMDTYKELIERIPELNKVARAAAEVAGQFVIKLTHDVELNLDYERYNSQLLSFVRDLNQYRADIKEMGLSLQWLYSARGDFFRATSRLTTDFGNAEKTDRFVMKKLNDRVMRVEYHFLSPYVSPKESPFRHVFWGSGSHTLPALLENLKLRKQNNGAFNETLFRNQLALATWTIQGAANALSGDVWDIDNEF
We begin with a simple list: items and their reported koff.
Give the number; s⁻¹ is assumed, so skip it.

Binder	koff [s⁻¹]
Mu7A4.Fab (Fab, V domains shown, Fab; also called mouse 7A4 Fab) VH: QVQLQQSGPELVRPGVSVKISCKGSGYTFTDYAMHWVKQSHAKSLEWIGGISTYFGRTNYNQKFKGRATMTVDKSSSTAYMELARLTSEDSALYYCARGLSGNYVMDYWGQGTSVTVSS VL: DIVLTQSPASLAVSLGQRATISCRASESVDDYGNSFMHWYQQKPGQPPKLLIYRASNLESGIPARFSGSGSRTDFTLTINPVEADDVATYYCQQSNEAPPTFGGGTKLEIR	0.000313

Now look at this one.
What measured koff goes with Hu15G11.v1.Fab (Fab, V domains shown, Fab) VH: EVQLVQSGAEVKKPGASVKVSCKASGYTFTSYWMHWVRQAPGQRLEWMGEINPTNGRTNYIEKFKSRVTITRDTSASTAYMELSSLRSEDTAVYYCARGTRAYHYWGQGTMVTVSS VL: DIQMTQSPSSLSASVGDRVTITCRASDNLYSNLAWYQQKPGKAPKLLLYDATNLADGVPSRFSGSGSGTDYTLTISSLQPEDFATYYCQHFWGTPLTFGQGTKVEIK ?
0.00699
